experiment: Multiple-dose pharmacokinetics of 1 mg NA/10 mcg EE tablets in 18 postmenopausal women; format: in vivo, human; conditions: female, human, plasma, oral, Steady-State (Day 87), 1 mg NA/10 mcg EE tablets, Mean (SD); read-out: Tmax
Measured Quantity: Tmax (h)
Kindly provide the numeric value in h only, without the unit symbol.

## Task May I ask what Tmax has been recorded for "C#C[C@]1(O)CC[C@H]2[C@@H]3CCC4=CC(=O)CC[C@@H]4[C@H]3CC[C@@]21C" ?
## Result 1.8

* * *

assay: Multiple-dose pharmacokinetics of 1 mg NA/10 mcg EE tablets in 18 postmenopausal women; assay type: in vivo, human; details: female, human, plasma, oral, Single-Dose (Day 1), 1 mg NA/10 mcg EE tablets, Mean (SD); read-out: AUC(0-24)
Measured Quantity: AUC(0-t)

## Task May I ask what AUC(0-t) has been recorded for C#C[C@]1(O)CC[C@H]2[C@@H]3CCC4=CC(=O)CC[C@@H]4[C@H]3CC[C@@]21C [Norethindrone, norethindrone] ?
## Result 29.7 ng·h/mL
